assay: qHTS assay to identify small molecule agonists of the estrogen related receptor (ERR) signaling pathway from Tox21 library (AID 1224849); details: ERR reporter cell line, ONE-Glo luciferase, 18 h; at 92.4 µM (top of the series) unless noted; further: on the % scale 0 is the no-effect control and ±100 the full control effect; nearly all actives have a fitted effect of over 15% in size
Activity calls are given as the source filed them. The call rests on the fitted dose curve.
observable: activity change, positive = activation

>>> observed_measurement("CC[N+](C)(CC)CCOC(=O)C(O)(c1ccccc1)C1CCCCC1 (stereo not given)")
"-2.02% [at 42.5 µM] (inactive)"
>>> observed_measurement("CCCOC(C(=O)OC1CCN(C)CC1)(c1ccccc1)c1ccccc1")
"-25.8% [at 42.5 µM] (inactive)"
>>> observed_measurement("CCN(CC)CCNc1ccc(CNC=O)c2sc3ccc(OC)cc3c(=O)c12")
"-41.1% (inactive)"
>>> observed_measurement("O=C(Nc1ccccc1)c1ccccc1O")
"-30.7% (inactive)"
>>> observed_measurement("CCC(=O)O[C@]1(C(=O)CCl)[C@@H](C)C[C@H]2[C@@H]3CCC4=CC(=O)C=C[C@]4(C)[C@@]3(F)[C@@H](O)C[C@@]21C")
"-18.7% [at 42.5 µM] (inactive)"
>>> observed_measurement("Cc1cccc(C)c1OCC(=O)N[C@@H](Cc1ccccc1)[C@@H](O)C[C@H](Cc1ccccc1)NC(=O)[C@H](C(C)C)N1CCCNC1=O")
"-59.8% [at 42.5 µM] (inactive)"
>>> observed_measurement("CC(COCCO)OCCO (stereo not given)")
"0.277% (inactive)"
>>> observed_measurement("Cc1oc2c(NC(=O)c3c(Cl)cccc3Cl)cccc2c1C(C)(C)O")
"-55.8% (inactive)"
>>> observed_measurement("Nc1ccccc1S(=O)(=O)c1ccccc1")
"-20.8% (inactive)"
>>> observed_measurement("CCC(C)O (stereo not given)")
"0.0918% (inactive)"
>>> observed_measurement("CCCCCCCC#N")
"2.85% (inactive)"
>>> observed_measurement("ClCCOCCOCCCl")
"2.88% (inactive)"
>>> observed_measurement("O=[N+]([O-])c1cccc(S(=O)(=O)O)c1")
"-46% (inactive)"
>>> observed_measurement("CCN(CC)c1ccc2c(-c3ccccc3C(=O)O)c3ccc(=[N+](CC)CC)cc-3oc2c1")
"-49.3% (inactive)"
>>> observed_measurement("CCCCC(CC)COC(=O)CCCCCCCCC(=O)OCC(CC)CCCC (stereo not given)")
"1.57% (inactive)"
>>> observed_measurement("CCc1cc(C2=C(C(=O)O)N(c3ccccc3C(F)(F)F)S(=O)(=O)c3ccccc32)cc2c1OCO2")
"-39.9% (inactive)"
>>> observed_measurement("C=C1C(=C/C=C2\\CCC[C@]3(C)[C@@H]([C@H](C)/C=C/[C@@H](O)C4CC4)CC[C@@H]23)C[C@@H](O)C[C@@H]1O")
"-57.7% [at 42.5 µM] (inactive)"
>>> observed_measurement("CCCCC/C=C\\C/C=C\\CCCCCCCC(=O)NC(C)c1ccccc1 (stereo not given)")
"-35.5% [at 42.5 µM] (inactive)"
>>> observed_measurement("Nc1ccc(N)c2c1C(=O)c1ccccc1C2=O")
"-37.5% (inactive)"
>>> observed_measurement("CCCCCCCCCCCCCCCCOS(=O)(=O)O")
"-16% [at 42.5 µM] (inactive)"
>>> observed_measurement("COC(=O)C1=C(C)NC(COC(N)=O)=C(C(=O)OC(C)C)C1c1cccc(Cl)c1Cl (stereo not given)")
"-36.5% [at 42.5 µM] (inactive)"
>>> observed_measurement("Brc1c2ccccc2c(Br)c2ccccc12")
"2.61% [at 8.39 µM] (inactive)"
>>> observed_measurement("CCNc1cc(O)ccc1C")
"-8.23% (inactive)"
>>> observed_measurement("O=C1CCCCCCCCCCCC(=O)OCCO1")
"1.67% (inactive)"
>>> observed_measurement("CN1CCC(=C2c3ccccc3Sc3ccccc32)CC1")
"1.79% [at 42.5 µM] (inactive)"

* * *

experiment: qHTS assay to identify small molecule antagonists of the sonic hedgehog signaling (Shh) pathway (AID 1259369); conditions: NIH/3T3 Gli1-Luc reporter, Shh antagonist, luminescence 24 h; series mostly up to 92.4 µM; further: nearly all actives have a fitted effect of over 45% in size; further: potency means the concentration at half of the fitted maximal effect
Results filed as inconclusive are left out. Activity calls are given as the source filed them. Calls follow the shape of the full dose curve.
observable: Potency

>>> observed_measurement("C=C1C(=C/C=C2\\CCC[C@]3(C)[C@@H]([C@H](C)/C=C/[C@@H](O)C4CC4)CC[C@@H]23)C[C@@H](O)C[C@@H]1O")
"0.0007 µM (active)"
>>> observed_measurement("Brc1c2ccccc2cc2ccccc12")
"inactive"
>>> observed_measurement("O=C1C(O)=C(O)C(=O)C(O)=C1O")
"inactive"
>>> observed_measurement("Cc1ncc(CO)c(C=O)c1O")
"inactive"
>>> observed_measurement("c1ccc(-c2ccccn2)nc1")
"inactive"
>>> observed_measurement("CC(=O)NO")
"inactive"
>>> observed_measurement("Nc1c(CC(=O)O)cccc1C(=O)c1ccc(Br)cc1")
"inactive"
>>> observed_measurement("O=C(NCC1CN(c2ccc(N3CCOCC3=O)cc2)C(=O)O1)c1ccc(Cl)s1 (centres undefined)")
"inactive"
>>> observed_measurement("COc1ccc(C)cc1[N+](=O)[O-]")
"inactive"
>>> observed_measurement("COS(=O)(=O)C(F)(F)F")
"14.3 µM (active)"
>>> observed_measurement("COc1ccc(S(=O)(=O)N2C(=O)[C@@](c3ccccc3OC)(N3C[C@H](O)C[C@H]3C(=O)N(C)C)c3cc(Cl)ccc32)c(OC)c1")
"15.4 µM (active)"
>>> observed_measurement("S=C([S-])NCCNC(=S)[S-].[Mn+2]")
"inactive"
>>> observed_measurement("CN(C)c1ccc(CCO)cc1")
"inactive"
>>> observed_measurement("CCCC(=O)Nc1ccc(O)c(C(C)=O)c1")
"inactive"

* * *

test: A CellTox Green Cytotoxicity Assay to monitor cytotoxicity in HepG2 cells - 16 hour (AID 1224876); conditions: CellTox Green fluorescence; series mostly up to 76.8 µM; further: on the % scale 0 is the no-effect control and ±100 the full control effect; nearly all actives have a fitted effect of over 45% in size
Records with an inconclusive call do not appear. The source made the active and inactive calls. The call rests on the fitted dose curve; in most records, active means well fitted activation curve with a large enough effect in the repeat runs; inconclusive means weak or mixed curves; inactive means flat fitted curve, though single readings scatter.
observable: cytotoxicity increase

>>> observed_measurement("C[C@@H]1C[C@H]2O[C@@]3(O[C@@H]2C(C)(C)O)[C@H](O)[C@@]2(C)[C@@H]4CC[C@H]5C(C)(C)[C@@H](O[C@@H]6OC[C@@H](O)[C@H](O)[C@H]6O)CC[C@@]56C[C@@]46CC[C@]2(C)[C@@H]13")
"inactive"
>>> observed_measurement("NCC(=O)O")
"8.58% [at 15.8 µM] (inactive)"
>>> observed_measurement("C=CC(=O)OCCOc1ccccc1")
"inactive"
>>> observed_measurement("CN(C)c1ccc(C(c2ccccc2)c2ccc(N(C)C)cc2)cc1")
"inactive"
>>> observed_measurement("CN(C)CCN(Cc1ccc(Cl)cc1)c1ccccn1")
"inactive"
>>> observed_measurement("O=C1CCC(=O)O1")
"inactive"

* * *

assay: Caspase-3/7 induction in HepG2 cells by small molecules, qHTS cell viability counter screen (AID 1346981); conditions: CellTiter-Fluor fluorescence, 17 h; series mostly up to 92.4 µM; further: nearly all actives have a fitted effect of over 30% in size
Records with an inconclusive call do not appear. Active and inactive are the calls of the source. The call rests on the fitted dose curve; in most records, active means well fitted cell-killing curve with a large enough effect in the repeat runs; inconclusive means weak or mixed curves, or effect the other way; inactive means flat fitted curve, though single readings scatter.
Outcomes: 1 (yes) (active), 0 (no) (inactive)

>>> label_value("Nc1c(CC(=O)O)cccc1C(=O)c1ccc(Br)cc1")
"0 (no)"
>>> label_value("COC(C)OC")
"0 (no)"
>>> label_value("COCCCN1CCC(NC(=O)c2cc(Cl)c(N)c3c2OCC3)CC1")
"0 (no)"
>>> label_value("O=C(O)c1ccco1")
"0 (no)"
>>> label_value("CN1CCN(C(c2ccccc2)c2ccccc2)CC1")
"0 (no)"
>>> label_value("CCC(CC)Nc1ccc(C)c(C)c1")
"0 (no)"
>>> label_value("O=[N+]([O-])c1ccc(NCCO)c(OCCO)c1")
"1 (yes)"
>>> label_value("COCC(C)OC(C)=O (stereo not given)")
"0 (no)"
>>> label_value("O=C(OCCc1ccccc1)c1ccccc1")
"0 (no)"
>>> label_value("CCNc1cc(O)ccc1C")
"0 (no)"
>>> label_value("CC(=O)NO")
"0 (no)"
>>> label_value("C=C(C)C(=O)OCCO")
"0 (no)"
>>> label_value("CCOC(=O)c1cccnc1")
"0 (no)"
>>> label_value("CCO[Si](CCCCl)(OCC)OCC")
"0 (no)"
>>> label_value("O=C1CCC(=O)O1")
"0 (no)"

* * *

target: Cytochrome P450 2D6 (Homo sapiens) (UniProt P10635); experiment: Cytochrome P450 Family 2 Subfamily D Member 6 (CYP2D6) small molecule antagonists: luciferase reporter qHTS assay (AID 1671196); conditions: P450-Glo CYP2D6 enzyme assay, luciferin luminescence, 1 h; series mostly up to 115 µM; further: nearly all actives have a fitted effect of over 50% in size
Sequence (P10635 whole entry, looked up): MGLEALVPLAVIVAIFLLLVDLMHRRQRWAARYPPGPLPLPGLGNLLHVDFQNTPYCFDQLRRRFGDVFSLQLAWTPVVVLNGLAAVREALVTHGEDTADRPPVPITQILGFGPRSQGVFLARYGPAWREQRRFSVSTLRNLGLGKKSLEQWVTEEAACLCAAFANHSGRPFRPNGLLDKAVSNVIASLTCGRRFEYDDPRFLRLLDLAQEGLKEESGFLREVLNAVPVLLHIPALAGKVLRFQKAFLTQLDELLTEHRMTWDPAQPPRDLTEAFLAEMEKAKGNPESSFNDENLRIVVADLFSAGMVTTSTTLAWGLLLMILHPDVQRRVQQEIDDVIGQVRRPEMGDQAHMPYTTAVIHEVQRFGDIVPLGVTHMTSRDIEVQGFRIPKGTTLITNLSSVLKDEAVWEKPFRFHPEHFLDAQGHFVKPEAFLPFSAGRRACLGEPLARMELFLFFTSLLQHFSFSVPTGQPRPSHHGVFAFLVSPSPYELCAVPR
Records with an inconclusive call do not appear. The source made the active and inactive calls. The call rests on the fitted dose curve; in most records, active means well fitted inhibition curve with a large enough effect in the repeat runs; inconclusive means weak or mixed curves; inactive means no such curve, though single readings can be large or run the other way.
Outcomes: label 1 for active, label 0 for inactive

>>> label_value("COc1ccc(C(=O)Nc2nc3ccccc3c(NCc3ccccc3)c2C#N)cc1")
"label 0"
>>> label_value("COc1cc2c(cc1OC)C(C(C(=O)N(CCc1ccc(OC)c(OC)c1OC)CCc1ccc(OC)c(OC)c1OC)c1ccccc1)=NCC2 (centres undefined)")
"label 1"
>>> label_value("COCC(C)OC(C)=O (centres undefined)")
"label 0"
>>> label_value("CCOc1ccc(N)c([N+](=O)[O-])c1")
"label 1"
>>> label_value("CC(C)(O)c1ccc(CNC(=O)c2cccnc2Oc2ccc(F)cc2)cc1")
"label 0"
>>> label_value("O=C1OC(CN2CCOCC2)CN1/N=C/c1ccc([N+](=O)[O-])o1 (centres undefined)")
"label 1"
>>> label_value("CCCCOC(=O)CCCCCCCC(=O)OCCCC")
"label 0"
>>> label_value("CC(=O)NO")
"label 0"
>>> label_value("O=C(O)c1nc(Cl)c(Cl)c(Cl)c1Cl")
"label 1"
>>> label_value("CCCCc1nc2cccnc2n1Cc1ccc(-c2ccccc2-c2nnn[nH]2)cc1")
"label 0"
>>> label_value("CC(CC=O)c1ccccc1 (centres undefined)")
"label 0"
>>> label_value("C[N+]1(CC2COC(c3ccccc3)(C3CCCCC3)O2)CCCCC1 (centres undefined)")
"label 1"
>>> label_value("CCN(CC)CCOC(=O)C(Cc1cccc2ccccc12)CC1CCCO1 (centres undefined)")
"label 1"
>>> label_value("CC(=O)c1ccc2c(c1)N(CCCN(C)C)c1ccccc1S2")
"label 1"
